- System: OVCAR-4
- assay_text: NCI tumour cell line growth inhibition, 48 h
Active and inactive are the calls of the source. No stated cut-off is given here; in the data, active = GI50 up to about 1.1 µM and inactive = higher.
property_label: GI50

> print(dat)
                                    compound  property.label         assay.result
 1          CCOC(=O)c1csc(NC(=O)CN2CCCCC2)n1            GI50  > 100 µM (inactive)
 2  COC(=O)C1CCC(=S)N1C(C)=O (centres undefined)            GI50  > 100 µM (inactive)
 3       O=C(Nc1ccccc1)c1cc2cc(CCl)ccc2oc1=O            GI50  > 100 µM (inactive)
 4  O=C(Nc1ccccc1F)c1cc2ccc(O)cc2o/c1=N\c1cccc(F)c1            GI50   9.86 µM (inactive)
 5  N=C(N)NCCCC(NC(=O)c1c2ccccc2nc2ccccc12)C(=O)O (centres undefined)            GI50  > 100 µM (inactive)
 6                           O=C1CCNC(=O)NC1            GI50  > 100 µM (inactive)
 7  COC(=O)C1(NC(=O)C(N)CC(=O)O)C(C)C1C (centres undefined)            GI50  > 100 µM (inactive)
 8           COCC1OCCN1C (centres undefined)            GI50  > 100 µM (inactive)
 9          NC(=O)NCc1c(C(N)=O)ncn1Cc1ccccc1            GI50  > 100 µM (inactive)
10   CCO[C@@H]1OC(=O)[C@](C)(C(C)=O)[C@@H]1C            GI50   71.9 µM (inactive)
11  CC(C)[Si](OCC1CC(C#N)OC(C)(C)O1)(C(C)C)C(C)C (centres undefined)            GI50   30.3 µM (inactive)
12  CC1=C2C(=O)OCC23C=COC3(C)O1 (centres undefined)            GI50   29.4 µM (inactive)
13  CC1(C)CC[C@]2(C)[C@@H](O)C[C@]3(C)C(=CC[C@@H]4[C@@]5(C)CC[C@H](O)C(C)(C)[C@@H]5CC[C@]43C)[C@@H]2C1            GI50   97.3 µM (inactive)
14  NC1=C(N2CCCCC2)C(=O)NC2=N/C(=C\c3ccccc3)C(=O)N21            GI50   86.3 µM (inactive)

* * *

- System: KM12
- assay_text: NCI tumour cell line growth inhibition, 48 h
The source made the active and inactive calls. Cut-off read from the data, not from the text of the source: active = GI50 up to about 1.1 µM and inactive = higher.
property_label: GI50

> print(dat)
                                    compound  property.label         assay.result
 1  Cn1c(=O)c2c(nc3n2CC(C(=O)O)N3)n(C)c1=O (stereo not given)            GI50  > 100 µM (inactive)
 2        O=C1OC(=O)c2c1nc1ccccc1c2-c1ccccc1            GI50  > 100 µM (inactive)
 3  CCOC(=O)C1=C(C)N2CCOC2(C)C(C(=O)OC)C1c1cccc(Cl)c1 (stereo not given)            GI50  > 100 µM (inactive)
 4  Cc1cc(Br)ccc1/N=N/c1c(C)nn(-c2ccccc2)c1-c1ccccc1            GI50     57 µM (inactive)
 5  CC(C)=CCC/C(C)=C/CC/C(C)=C/CC/C(C=O)=C/CC/C(C)=C\CC/C(C)=C/CC/C(C)=C/CC/C(C)=C/CC1=CC(=O)C=CC1=O            GI50   81.3 µM (inactive)
 6          Cc1ccc([N+](=O)[O-])cc1NC1=NCCO1            GI50  > 100 µM (inactive)
 7           COc1cc(/C=C/c2cccnc2)cc(OC)c1OC            GI50  > 100 µM (inactive)
 8  COC(C)(C)OCCN1CCN(CCN2C3=C(C=C(C(C)=O)C3)Sc3ccccc32)CC1            GI50   16.7 µM (inactive)
 9                       O=C(O)C/C=C/CC(=O)O            GI50  > 100 µM (inactive)
10  C=CC(O)C#Cc1cnc(OC)nc1OC (stereo not given)            GI50   86.7 µM (inactive)
11            Cc1ccnc(NC(=S)Nc2cccc(Cl)c2)c1            GI50  > 100 µM (inactive)
12           CN(C)c1ncnc2c1Cc1ccccc1C(=O)N2C            GI50  > 100 µM (inactive)
13  O=S1(=O)C[C@H](NCc2ccccc2)[C@H](NCc2ccccc2)C1            GI50  > 100 µM (inactive)
14  CS(=O)(=O)OC1CCC2(C#N)CCC1C2=O (stereo not given)            GI50  > 100 µM (inactive)
15  CCCCC(/C=N/NC(=N)N)CC.Cc1cc(O)c(C(C)C)cc1S(=O)(=O)O            GI50   52.4 µM (inactive)

* * *

- Test system: SF-539
- assay_text: NCI tumour cell line growth inhibition, 48 h
The source made the active and inactive calls. Cut-off read from the data, not from the text of the source: active = GI50 up to about 1.1 µM and inactive = higher.
Possible outcomes: yes (1) for active, no (0) for inactive

> print(dat)
                                    compound  assigned.category
 1         NCCSc1nc(-c2ccccc2)c(-c2ccccc2)o1             no (0)
 2  N=C1N(c2ccccc2)C(=O)C23CCCC2C13N1CCOCC1 (stereo unspecified)             no (0)
 3       O=C(Oc1cccnc1)c1cc2cc(CCl)ccc2oc1=O             no (0)
 4  CCN1C(=O)N(C)C(O)c2c1nc1ccccn1c2=O (stereo unspecified)             no (0)
 5  O=C1/C(=C/c2ccc(O)cc2)CCC1CNc1ccc(Cl)cc1 (stereo unspecified)             no (0)
 6         C/C(CC(=O)Nc1ccc(C)cc1)=N\NC(N)=S             no (0)
 7                N/C(=N\O)N/N=C/c1cccc(F)c1             no (0)
 8  CC(NC(=O)c1ccccc1)C(=O)N(Cc1ccccc1)Cc1ccccc1 (stereo unspecified)             no (0)
 9  CCOC(=O)Nc1c(C#N)[n+]([O-])c2cc(Cl)c(Cl)cc2[n+]1[O-]             no (0)
10  O=[N+]([O-])c1ccc(S[C@@H]2[C@H]3c4c(-c5ccccc5)[nH]c(-c5ccccc5)c4[C@@H]2C[C@H]3Cl)cc1             no (0)
11  CC(C)C[C@H](NC(=O)[C@H](Cc1cccc2ccccc12)NS(=O)(=O)c1cccc2cccnc12)B(O)O            yes (1)

* * *

- Test system: HCT-15
property_label: GI50

> print(dat)
                                   compound  assay.result
1  C#CCN(N=O)C(=O)NCCCCC(NC(C)=O)C(=O)NCc1ccccc1 (stereo not drawn)      > 100 µM
2  COC(=O)C1CCC(=S)N1C(C)=O (stereo not drawn)      > 100 µM
3  CN(/N=C/c1cccs1)c1ccc([N+](=O)[O-])cc1[N+](=O)[O-]      > 100 µM

* * *

- Tested on: CCRF-CEM
- assay_text: NCI tumour cell line growth inhibition, 48 h
Active and inactive are the calls of the source. Rule as the data show it: active = GI50 up to about 1.1 µM and inactive = higher.
Possible outcomes: active, inactive

> print(dat)
                                   compound  measurement.target  assigned.category
1  CN(Cc1nc2c(N)nc(N)nc2nc1N)c1ccc(C(=O)NC(CCC(=O)O)C(=O)O)cc1 (centres undefined)            CCRF-CEM             active
2    NC1CSc2ccccc2NC1=O (centres undefined)            CCRF-CEM           inactive
3  c1ccc(SCCP(CCP(c2ccccc2)c2ccccc2)c2ccccc2)cc1 (centres undefined)            CCRF-CEM           inactive
4  COc1ccc(C2=Nn3c(nnc3-c3ccccc3)S/C2=C\c2ccc(-c3ccc([N+](=O)[O-])cc3)o2)cc1            CCRF-CEM           inactive
5  CCCCCCC(C)CCCCCCCCCCC(=O)O (centres undefined)            CCRF-CEM           inactive
6  O=c1[nH]c(=O)n(C2CC(O)C(CO)O2)cc1/N=N/NCCc1ccccc1 (centres undefined)            CCRF-CEM           inactive
7                       O=C(O)C/C=C/CC(=O)O            CCRF-CEM           inactive
8  CN(C)c1ccc(/C=C(\NC(=O)c2ccccc2)c2nc3ccccc3c(=O)o2)cc1            CCRF-CEM           inactive
9  O=C1C2C3C=C4c5ccccc5N(c5ccccc5)C4(C2C(=O)N1c1ccccc1)C1C(=O)N(c2ccccc2)C(=O)C31 (centres undefined)            CCRF-CEM           inactive

Provenance of the data: ChEMBL document CHEMBL1201862
